target-of-assay: NAD-dependent protein deacetylase sirtuin-1 (Homo sapiens)
protocol-description: Substrate activity at human N-terminal His-tagged SIRT1 (183 to 664 residues) expressed in Escherichia coli at 0.5 uM measured after 2 hrs in presence of NAD+ and trypsin by fluorescence assay
*1 amine or outer side, *2 acyl side, *3 side chain or, on linkers, in order; H or OH if unused. Where a SMILES comes first, the peptide text is derived from it. The star is where a group is joined. AMC = Cc1cc(=O)oc2cc(N*)ccc12; Suc = O=C(CCC(=O)[*:2])[*:1]; Decanoyl = CCCCCCCCCC(=O)*
quantity-name: Activity (RFU)

>>> value("CC(=O)NCCCC[C@H](NC(=O)[C@H](CO)NC(=O)[C@H](Cc1ccccc1)NC(=O)[C@H](CC(=O)O)NC(C)=O)C(=O)Nc1ccc2c(C)cc(=O)oc2c1 (Ac-DFSK(Ac)-{AMC})")
0.31

(P) CC(=O)N[C@@H](Cc1cnc[nH]1)C(=O)N[C@@H](Cc1ccccc1)C(=O)N[C@@H](CO)C(=O)N[C@@H](CCCCNC(=O)CCC(=O)O)C(=O)Nc1ccc2c(C)cc(=O)oc2c1 (Ac-HFSK(Suc)-{AMC})
(Q) CCCCCCCCCC(=O)NCCCC[C@H](NC(=O)[C@H](CC(=O)O)NC(=O)[C@@H](NC(=O)[C@H](CCC(=O)O)NC(C)=O)[C@@H](C)O)C(=O)Nc1ccc2c(C)cc(=O)oc2c1 (Ac-ETDK(Decanoyl)-{AMC})
(R) CC(=O)NCCCC[C@H](NC(=O)[C@H](CCCCN)NC(=O)[C@H](Cc1cnc[nH]1)NC(=O)[C@H](CCCNC(=N)N)NC(C)=O)C(=O)Nc1ccc2c(C)cc(=O)oc2c1 (Ac-RHKK(Ac)-{AMC})
(S) CC(=O)NCCCC[C@H](NC(=O)[C@H](CCCNC(=N)N)NC(=O)[C@H](CO)NC(=O)[C@H](CC(N)=O)NC(C)=O)C(=O)Nc1ccc2c(C)cc(=O)oc2c1 (Ac-NSRK(Ac)-{AMC})
Req: Order the records, beginning with the lowest Activity and ending with the highest. Answer format: the labels, in the requested order.
Resp: P, S, R, Q
(P: 0.16 RFU, S: 0.23 RFU, R: 0.37 RFU, Q: 2.97 RFU)

====

target-of-assay: UniProt:Q96EB6
Sequence (Q96EB6 whole entry, the tested form may be a part): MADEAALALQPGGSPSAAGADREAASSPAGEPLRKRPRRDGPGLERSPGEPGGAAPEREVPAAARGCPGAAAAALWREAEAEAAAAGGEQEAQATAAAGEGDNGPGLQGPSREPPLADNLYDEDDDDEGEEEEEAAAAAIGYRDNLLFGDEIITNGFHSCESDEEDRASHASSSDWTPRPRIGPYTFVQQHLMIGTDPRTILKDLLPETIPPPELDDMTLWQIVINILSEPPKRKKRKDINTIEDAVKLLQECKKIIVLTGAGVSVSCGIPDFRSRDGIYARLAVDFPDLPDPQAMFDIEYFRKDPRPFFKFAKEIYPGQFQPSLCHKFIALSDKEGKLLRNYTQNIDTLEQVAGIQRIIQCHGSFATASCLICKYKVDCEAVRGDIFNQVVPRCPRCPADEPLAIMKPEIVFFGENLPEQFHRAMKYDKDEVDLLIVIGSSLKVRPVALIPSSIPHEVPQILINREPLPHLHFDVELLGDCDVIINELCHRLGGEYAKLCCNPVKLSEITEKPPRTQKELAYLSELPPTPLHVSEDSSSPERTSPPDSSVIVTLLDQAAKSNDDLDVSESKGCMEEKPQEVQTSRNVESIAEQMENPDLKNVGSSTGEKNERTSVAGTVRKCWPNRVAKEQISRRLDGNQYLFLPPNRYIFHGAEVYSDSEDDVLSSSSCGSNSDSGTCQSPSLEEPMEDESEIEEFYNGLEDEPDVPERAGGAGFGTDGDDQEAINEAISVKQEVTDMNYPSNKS
protocol-description: Substrate activity at human N-terminal His-tagged SIRT1 (183 to 664 residues) expressed in Escherichia coli at 5 uM measured after 2 hrs in presence of NAD+ and trypsin by fluorescence assay
*1 amine or outer side, *2 acyl side, *3 side chain or, on linkers, in order; H or OH if unused. Where a SMILES comes first, the peptide text is derived from it. The star is where a group is joined. AMC = Cc1cc(=O)oc2cc(N*)ccc12; Suc = O=C(CCC(=O)[*:2])[*:1]; Decanoyl = CCCCCCCCCC(=O)*
quantity-name: Activity (RFU)

// below: answered molecules
>>> value("CC(=O)N[C@@H](Cc1cnc[nH]1)C(=O)N[C@@H](Cc1ccccc1)C(=O)N[C@@H](CO)C(=O)N[C@@H](CCCCNC(=O)CCC(=O)O)C(=O)Nc1ccc2c(C)cc(=O)oc2c1 (Ac-HFSK(Suc)-{AMC})")
0.36
>>> value("CCCCCCCCCC(=O)NCCCC[C@H](NC(=O)[C@@H](NC(=O)[C@H](CO)NC(=O)[C@H](CO)NC(C)=O)[C@@H](C)CC)C(=O)Nc1ccc2c(C)cc(=O)oc2c1 (Ac-SSIK(Decanoyl)-{AMC})")
2.13
>>> value("CCCCCCCCCC(=O)NCCCC[C@H](NC(=O)[C@H](CCCCN)NC(=O)[C@@H]1CCCN1C(=O)[C@H](CC(N)=O)NC(C)=O)C(=O)Nc1ccc2c(C)cc(=O)oc2c1 (Ac-NPKK(Decanoyl)-{AMC})")
0.76

(1) CCCCCCCCCC(=O)NCCCC[C@H](NC(=O)[C@H](CCC(N)=O)NC(=O)[C@@H](NC(=O)[C@H](CCCCN)NC(C)=O)C(C)C)C(=O)Nc1ccc2c(C)cc(=O)oc2c1 (Ac-KVQK(Decanoyl)-{AMC})
(2) CCCCCCCCCC(=O)NCCCC[C@H](NC(=O)[C@H](CCCNC(=N)N)NC(=O)[C@H](C)NC(=O)[C@@H](NC(C)=O)[C@@H](C)O)C(=O)Nc1ccc2c(C)cc(=O)oc2c1 (Ac-TARK(Decanoyl)-{AMC})
Req: Lab notebook, comparison: 1 versus 2 , higher Activity goes to which? Let me know the label of the one you choose.
Resp: 1
